Just for reference, patent US12617777B2 is where these values come from.

Target: human GPR84 receptor (Homo sapiens)
Construct: host or cells: HEK293, transient transfection
Sequence (Q9NQS5 whole entry): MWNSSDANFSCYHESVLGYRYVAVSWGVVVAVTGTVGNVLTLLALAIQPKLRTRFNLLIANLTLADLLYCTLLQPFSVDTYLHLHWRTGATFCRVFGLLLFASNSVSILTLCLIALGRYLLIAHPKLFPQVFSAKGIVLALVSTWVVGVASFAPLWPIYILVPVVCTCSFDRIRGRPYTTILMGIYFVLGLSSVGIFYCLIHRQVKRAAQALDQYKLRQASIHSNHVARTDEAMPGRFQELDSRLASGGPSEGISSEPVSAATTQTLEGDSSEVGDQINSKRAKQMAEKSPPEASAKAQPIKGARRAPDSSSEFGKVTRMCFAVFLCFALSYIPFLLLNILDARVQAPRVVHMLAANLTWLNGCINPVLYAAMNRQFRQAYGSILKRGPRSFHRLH
Assay: Gαi biosensor BRET assay in HEK293 cells (antagonism of ZQ-16)
Type: cell-based
Details: HEK293, single concentration 10 μM (designated F)
Description: Background—The following assays can be used for determination of GPR84 activation in living HEK293 cells. […] Bioluminescence Resonance Energy Transfer (BRET) Measurement—HEK293 cells were transfected with GPR84-Rluc8 and rGFP-FYVE for the EEs trafficking biosensor or with GPR84, Gαi2-Rluc8, GFP10-Gγ2, and Gβ1 for the Gαi biosensor. […] The BRET signal was calculated as the ratio of light emitted by acceptor (GFP10, rGFP) over the light emitted by donor (Rluc8). […]
quantity-name: inhibition at 10 µM

In the examples that follow, each entry is paired with its recorded inhibition at 10 µM.
molecule="CCc1cc(N2CC(C)(O)C2)ccc1-c1cn(CC2OCC(C)(C)CO2)nn1 [Compound I-641]" result="> 75%"
molecule="CC1(C)COC(Cn2cc(-c3ncc(C#CCN4CC(C)(CO)C4)cc3OC3CC3)nn2)OC1 [Compound I-799]" result="> 75%"
molecule="Cc1cc(N2CCN(c3ccccn3)CC2)ccc1-c1cn(CC2CCCCO2)nn1 (stereo not shown) [Compound I-533]" result="≤ 25%"

Now for the molecule whose inhibition at 10 µM we want.
Read the entry Cc1cc(N2CC3(CCNC3)C2)ccc1-c1cn(CC2CCCCO2)nn1 (stereo not shown) [Compound I-167] and write its reported inhibition at 10 µM.
≤ 25%
